Reference for the values: patent US11142505B2

- Test system: CHO-7W cells that were stably transfected with human APP (wildtype)
- Assay procedure: Secondary cell-based test of APP processing (sAPPalpha, sAPPbeta, Abeta 1-42)
- Stated conditions: Secondary (1st test, n = 3); ratio, ↑ increase
Property label: sAPP (α/β)

Known results for molecules:
Molecule: Cc1cc(C2(c3cccc(-c4cccnc4)c3)N=C(N)N(C)C2=O)ccc1OC(F)F (centres unmarked) [FAH-32]
sAPP (α/β): ↑>100%
--
Molecule: Cc1cccc(C2(c3ccc(OC(F)F)c(C)c3)N=C(N)N(C)C2=O)c1 (centres unmarked) [FAH-27]
sAPP (α/β): ↑>100%
--
Molecule: Cc1cc(C2(c3ccc(OC(F)F)c(C)c3)N=C(N)N(C)C2=O)ccn1 (centres unmarked) [FAH-47]
sAPP (α/β): ↑>50%
--
Molecule: Cc1cc(C2(c3cc(F)cc(F)c3)N=C(N)N(C)C2=O)ccc1OC(F)F (centres unmarked) [FAH-03]
sAPP (α/β): ↑≈50%

Could you now look at the following molecule, please?
## Task Can you look up the measured sAPP (α/β) of COCc1cc(C2(c3ccc(OC(F)F)c(C)c3)N=C(N)N(C)C2=O)ccn1 (centres unmarked) [FAH-53] for me?
## Result ↑≈50%
